studyTarget: UniProt P13631
Sequence (P13631 185-419 limits assumed): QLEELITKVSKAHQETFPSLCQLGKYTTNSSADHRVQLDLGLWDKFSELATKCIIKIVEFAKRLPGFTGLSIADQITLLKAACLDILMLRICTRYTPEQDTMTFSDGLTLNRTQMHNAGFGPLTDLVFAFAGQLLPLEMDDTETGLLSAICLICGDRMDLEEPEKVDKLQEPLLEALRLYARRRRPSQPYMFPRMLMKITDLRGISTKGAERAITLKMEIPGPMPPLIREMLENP
testProtocol: Transactivation test (luciferase reporter, HeLa cells), RAR gamma
Assay type: cell-based
conditionSet: HeLa stable transfectants, Schild regression against reference agonist 4-[2-(5,5,8,8-tetramethyl-5,6,7,8-tetrahydro-2-naphthyl)propenyl]benzoic acid; read-out: RAR gamma Kdapp
endpointName: Kd (nM)
Numbers only, in nM.

Some molecules with recorded Kd:
[[record]]
structurenotation = "CC1(C)CCC(C)(C)c2c(OCc3ccc(F)cc3)cc([Se]C#Cc3ccc(C(=O)O)cc3)cc21"
studytarget = "UniProt P13631"
endpointname = "Kd"
valueunit = "nM"
measuredvalue = 1

[[record]]
structurenotation = "CC1(C)CCC(C)(C)c2c(OCc3ccc(F)c(F)c3)cc([Se]C#Cc3ccc(C(=O)O)cc3)cc21"
studytarget = "UniProt P13631"
endpointname = "Kd"
valueunit = "nM"
measuredvalue = 1

[[record]]
structurenotation = "Cc1cccc(COc2cc([Se]C#Cc3ccc(C(=O)O)cc3)cc3c2C(C)(C)CCC3(C)C)c1"
studytarget = "UniProt P13631"
endpointname = "Kd"
valueunit = "nM"
measuredvalue = 4

[[record]]
structurenotation = "CC1(C)CCC(C)(C)c2c(OCc3ccc(F)cc3F)cc([Se]C#Cc3ccc(C(=O)O)cc3)cc21"
studytarget = "UniProt P13631"
endpointname = "Kd"
valueunit = "nM"
measuredvalue = 1

[[record]]
structurenotation = "CC1(C)CCC(C)(C)c2c(OCc3cccc(F)c3)cc([Se]C#Cc3ccc(C(=O)O)cc3)cc21"
studytarget = "UniProt P13631"
endpointname = "Kd"
valueunit = "nM"
measuredvalue = 2


Then there is this molecule:
Form field: reported Kd of CC(C)(C)c1ccc(COc2cc([Se]C#Cc3ccc(C(=O)O)cc3)cc3c2C(C)(C)CCC3(C)C)cc1
4
